The reader will find reported %Inh values listed item by item below.
tested on: PRKR; construct: gene EIF2AK2; conditions: concentration: 1 μM, replicates: in singlicate; n = 1;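 further: KINOMEscan kinase panel screen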
measurement.kind: %Inh (%)

* O=C(Nc1c(F)cccc1F)c1cc(C(=O)c2ccccc2F)c[nH]1 | 0
* COC(=O)Nc1nc2ccc(Oc3ccc(CC(=O)Nc4cc(C(F)(F)F)ccc4F)cc3)cc2[nH]1 | 0
* Nc1cccc(-c2ccc3c(N)n[nH]c3c2)c1 | 0
* CSc1ccc(NC2=C(c3ccc(Cl)cc3)C(=O)NC2=O)cc1 | 0
* CN(C)CCOc1ccc(-c2cc(-c3ccc(Cl)c(O)c3)c(-c3ccncc3)[nH]2)cc1.Cl.Cl | 11

---

test system: SRPK3; conditions: concentration: 1 μM, replicates: in singlicate; n = 1
measurement.kind: %Inh (%)

* Cc1cccc(Nc2nc(NCCN)ncc2C(N)=O)c1 | 0
* O=C(O)C(F)(F)F.O=c1[nH]ccc2nc(N[C@@H]3CCNC3)nc(Nc3cc(Cl)cc(Cl)c3)c12 | 77
* COc1cccc(-c2nc(-c3ccccc3)[nH]c2-c2ccncc2)c1 | 0
* Cl.O=C(Nc1ccc(Oc2ccc3[nH]c(NC(=O)c4ccco4)nc3c2)cc1)Nc1cc(C(F)(F)F)ccc1F | 100
* CCNc1nccc(-c2c(-c3ccc(F)cc3)ncn2C2CCN(C)CC2)n1 | 0
* COC(=O)Nc1nc2cc(Oc3ccc(NC(=O)Nc4cccc(SC)c4)cc3)ccc2[nH]1.Cl | 0
* COc1cccc(C2=C(Nc3cccc(O)c3)C(=O)NC2=O)c1 | 13
* Fc1cc(Cl)ccc1Nc1ccnc2cc(-c3ccc(CN4CCSCC4)o3)ccc12 | 0
* COc1cccc(CC(=O)N2CCc3cc(-c4cn(C)c5ncnc(N)c45)ccc32)c1 | 20

---

We begin with a simple list: items and their reported %Inh.
system: BRSK1; conditions: concentration: 1 μM, replicates: in singlicate; n = 1
measurement.kind: %Inh (%)

* CS(=O)(=O)c1cccc(CNc2nc(Nc3ccc4c(c3)CCC(=O)N4)ncc2C(F)(F)F)c1 | 0
* Cc1ccc(-c2ccc3occ(-c4ccc(S(C)=O)cc4)c3c2)nn1 (centres unmarked) | 0
* CCNC(=O)/C=C/c1n[nH]c2cc(Sc3ccccc3C(=O)NC)ccc12 | 38
* CN(C)CCOc1ccc(-c2cc(-c3ccc(Cl)c(O)c3)c(-c3ccncc3)[nH]2)cc1.Cl.Cl [SB-684387] | 0
* CN(C)CCNS(=O)(=O)c1ccc(-c2ccnc3[nH]ccc23)cc1 [GSK977620] | 19
* Cl.Cl.NC(CNC(=O)c1cc(Br)c(-c2ccnc3[nH]ccc23)s1)c1ccccc1 (centres unmarked) [GSK1322949] | 50
* Cc1ccc(NC(=O)c2cccc(N3CCCCC3)c2)cc1-c1ccc(C(=O)NCC2CC2)cc1 [GSK1917008] | 6
* COc1cccc(CC(=O)N2CCc3cc(-c4cn(C)c5ncnc(N)c45)ccc32)c1 [GSK2608899] | 8
* Cc1cc(-c2c(-c3ccc(F)cc3)ncn2CCCN2CCOCC2)nc(N)n1 [SB-222517] | 0
* O=C(Nc1n[nH]c2nc(-c3ccccc3)ccc12)C1CC1 [SB-708999] | 54
* Cl.O=C(Nc1ccc(Oc2ccc3[nH]c(NC(=O)c4ccco4)nc3c2)cc1)Nc1cc(C(F)(F)F)ccc1F [GW683134] | 0
* Cc1ccc(O)cc1Nc1ccnc2cc(-c3ccc(CN4CCCCC4)o3)ccc12 [GW557777] | 0
* COc1cccc(NC(=O)NCCNc2ccnc(Nc3ccc(F)cc3)n2)c1 [GSK1379879] | 0
* CN(c1ccc(NC(=O)N2CCN(CCCN3CCOCC3)CC2)cc1)c1ccnc(Nc2ccc(CS(C)(=O)=O)cc2)n1.Cl [GW830899] | 83

---

tested on: PLK1; settings: concentration: 1 μM, replicates: in singlicate; n = 1
measurement.kind: %Inh (%)

• CC(C)c1nc(-c2ccc(F)c(NS(=O)(=O)c3c(F)cccc3F)c2)c(-c2ccnc(Nc3ccc(N4CCOCC4)nc3)n2)s1 = 15
• N#Cc1cnc2cc(-c3cnc(CNCCN4CCOCC4)s3)ccc2c1Nc1ccc(Oc2ccccc2)cc1 = 0
• CN(c1ccc(F)c(NC(=O)c2cccc(OC(C)(C)C#N)c2Cl)c1)c1ccc2nc(NC(=O)C3CC3)sc2n1 = 0
• Cn1cc(-c2ccc3c(c2)CCN3C(=O)Cc2cc(F)cc(F)c2F)c2c(N)ncnc21 = 0
• CN(c1ccc2c(c1)nc(NCc1ccccc1)n2C)c1ccnc(Nc2ccc(CS(C)(=O)=O)cc2)n1.Cl = 0
• Cc1cccc(Nc2nc(N[C@H]3CCCC[C@H]3N)ncc2C(N)=O)c1.Cl = 1
• Cc1ccc(NC(=O)c2ccnc(N3CCCCC3)c2)cc1-c1ccc(C(=O)NCC2CC2)cc1 = 0

---

test system: PAK7; conditions: concentration: 1 μM, replicates: in singlicate; n = 1
Entries and their %Inh values follow.
measurement.kind: %Inh (%)

- CN(C)c1ncnc2nc[nH]c12: 15
- COc1cc(Nc2nccc(N3CCC(NC(=O)Nc4ccc5c(c4)OCO5)C3)n2)cc(OC)c1OC (centres unmarked): 4
- CN1CCN(Cc2ccc(NC(=O)Nc3ccc(N(C)c4ccnc(Nc5ccc(CS(C)(=O)=O)cc5)n4)cc3)cc2)CC1.Cl: 51
- O=C(Nc1n[nH]c2nc(-c3cccc(O)c3)ccc12)C1CC1: 4
- COc1cc(Nc2ccnc3cc(-c4ccncc4)ccc23)cc(OC)c1OC.Cl: 0

---

tested on: CDC2L5; construct: gene CDK13; conditions: concentration: 1 μM, replicates: in singlicate; n = 1
Parameter: %Inh. Scope: all listed entries.
measurement.kind: %Inh

- COc1cc(Nc2ccnc3cc(-c4ccncc4)ccc23)cc(OC)c1OC.Cl: 0%
- Cc1nn2c(=O)cc(N3CCO[C@H](C)C3)nc2n1Cc1cccc(Cl)c1Cl: 0%
- O=C(O)C(F)(F)F.O=c1[nH]ccc2nc(N[C@@H]3CCNC3)nc(Nc3cc(Cl)cc(Cl)c3)c12: 0%
- COc1ccc(C2=C(Nc3cccc(O)c3)C(=O)NC2=O)cc1: 0%

---

system: ERK8; construct: gene MAPK15; conditions: concentration: 1 μM, replicates: in singlicate; n = 1
measurement.kind: %Inh

- N#CC1(c2cccc(C(=O)Nc3cccc(Oc4ccc5nc(NC(=O)C6CC6)sc5n4)c3)c2)CC1: 29%
- CSc1ccc(NC2=C(c3ccc(Cl)cc3)C(=O)NC2=O)cc1 [SB-317658]: 13%
- Cc1nn2c(=O)cc(N3CCO[C@H](C)C3)nc2n1Cc1cccc(Cl)c1Cl [GSK2373693]: 26%
- Cl.Cl.NC(CNC(=O)c1cc(Br)c(-c2ccnc3[nH]ccc23)s1)c1ccccc1 (stereo not shown) [GSK1322949]: 24%

---

Reported %Inh values are given for each entry in this list.
test system: PKAC-beta; construct: gene PRKACB; conditions: concentration: 1 μM, replicates: in singlicate; n = 1
measurement.kind: %Inh (%)

- Cc1cccc(Nc2nc(NCCN)ncc2C(N)=O)c1: 0
- CCOc1nccc(-c2c(-c3ccc(F)cc3)ncn2C2CCNCC2)n1: 25
- Fc1cc(Cl)ccc1Nc1ccnc2cc(-c3ccc(CN4CCOCC4)o3)ccc12: 37
- Cc1cccc(Nc2nc(N[C@H]3CCCC[C@H]3N)ncc2C(N)=O)c1.Cl: 29
- Cl.N#CCc1ccc(Nc2nccc(Nc3ccc(Oc4ccccc4)cc3)n2)cc1: 0
- Cc1cc(-c2c(-c3ccc(F)cc3)ncn2CCCN2CCOCC2)nc(N)n1: 16
- COc1cccc(NC(=O)NCCNc2ccnc(Nc3ccc(F)cc3)n2)c1: 0
- COc1cc(Nc2ccnc3cc(-c4ccncc4)ccc23)cc(OC)c1OC.Cl: 2
- CN(c1ccc(NC(=O)Nc2cccc(Cl)c2)cc1)c1ccnc(N)n1.Cl: 26

---

%Inh reference
test system: JNK1; construct: gene MAPK8; settings: concentration: 1 μM, replicates: in singlicate; n = 1
measurement.kind: %Inh (%)

- Nc1ncc(-c2ccc3nccc(-c4ccncc4)c3c2)cc1S(=O)(=O)N1CCCCC1 [GSK1693850]: 35
- CCOc1nccc(-c2c(-c3ccc(F)cc3)ncn2C2CCNCC2)n1 [SB-249175]: 58
- COc1cccc(C2=C(Nc3cccc(O)c3)C(=O)NC2=O)c1 [SB-390771]: 46
- CSc1ccc(NC2=C(c3ccc(Cl)cc3)C(=O)NC2=O)cc1 [SB-317658]: 0
- COc1cccc(NC(=O)NCCNc2ccnc(Nc3ccc(F)cc3)n2)c1 [GSK1379879]: 25
- CC(C)(C)c1ccc(C(=O)Nc2cn3cc(-n4ccnc4)ccc3n2)cc1: 5
- O=C(O)C(F)(F)F.O=c1[nH]ccc2nc(N[C@@H]3CCNC3)nc(Nc3ccc4c(c3)S(=O)(=O)CC4)c12 [GSK2181306]: 83
- O=C(Nc1n[nH]c2nc(-c3cccc(O)c3)ccc12)C1CC1 [SB-711805]: 25
- COc1ccc(C2=C(Nc3cccc(O)c3)C(=O)NC2=O)cc1 [SB-390766]: 21
- COc1cc(Nc2nccc(N3CCC(NS(=O)(=O)c4ccc(NC(C)=O)cc4)CC3)n2)cc(OC)c1OC [GSK1379825]: 44
- Cc1ccc(Nc2ccnc(Nc3ccc(C)c(F)c3)n2)cc1O.Cl [GW582868]: 31
- CC(C)c1nc(-c2ccc(F)c(NS(=O)(=O)c3c(F)cccc3F)c2)c(-c2ccnc(Nc3ccc(N4CCOCC4)nc3)n2)s1 [GSK1804250]: 32
- CN(C)CCNS(=O)(=O)c1ccc(-c2ccnc3[nH]ccc23)cc1 [GSK977620]: 29
- COC(=O)Nc1nc2ccc(Oc3ccc(NC(=O)Nc4cc(C(F)(F)F)ccc4F)cc3)cc2[nH]1.Cl [GW654607]: 0
- Cl.Cl.NCC(NC(=O)c1cc(-c2cccnc2)c(-c2ccnc3[nH]ccc23)s1)c1ccccc1 (stereo not shown) [GSK1323434]: 44
- CN(C)CCOc1ccc(-c2cc(-c3ccc(Cl)c(O)c3)c(-c3ccncc3)[nH]2)cc1.Cl.Cl [SB-684387]: 3
- Cl.Cl.NC(CNC(=O)c1cc(Br)c(-c2ccnc3[nH]ccc23)s1)c1ccccc1 (stereo not shown) [GSK1322949]: 44
- Cc1ccc(C)c(NC(=O)Nc2ccc(C)c(-c3ccc(C(=O)Nc4ccncc4)cc3)c2)c1 [GSK1398473]: 15
- COC(=O)Nc1nc2ccc(Oc3ccc(CC(=O)Nc4cc(C(F)(F)F)ccc4F)cc3)cc2[nH]1 [GW680903]: 1
- COc1cc(Nc2nccc(N3CCC(NC(=O)Nc4ccc5c(c4)OCO5)C3)n2)cc(OC)c1OC (stereo not shown) [GSK1379766]: 34
- Cl.N#CCc1ccc(Nc2nccc(Nc3ccc(Oc4ccccc4)cc3)n2)cc1 [GW639905]: 38
- Cl.O=C(Nc1ccc(Oc2ccc3[nH]c(NC(=O)c4ccco4)nc3c2)cc1)Nc1cc(C(F)(F)F)ccc1F [GW683134]: 15
- Cc1nn2c(=O)cc(N3CCO[C@H](C)C3)nc2n1Cc1cccc(Cl)c1Cl [GSK2373693]: 16
- Cn1cc(-c2ccc3c(c2)CCN3C(=O)Cc2cc(F)cc(C(F)(F)F)c2)c2c(N)ncnc21 [GSK2635225]: 0
- O=C(Nc1c(F)cccc1F)c1cc(C(=O)c2ccccc2F)c[nH]1 [GSK1326180]: 4
- Cc1cc(-c2ccnc(Nc3cccc(C#N)c3)n2)cc(C)c1O [GSK1440913]: 98.9
- Cc1cc(-c2c(-c3ccc(F)cc3)ncn2CCCN2CCOCC2)nc(N)n1 [SB-222517]: 5
- COc1cc(Nc2ccnc3cc(-c4ccncc4)ccc23)cc(OC)c1OC.Cl [GW494610]: 49
- O=C1NC(=O)C(c2ccccc2Cl)=C1Nc1cccc(Cl)c1 [SB-342409]: 19
- Cc1ccc(NC(=O)c2cccc(N3CCCCC3)c2)cc1-c1ccc(C(=O)NCC2CC2)cc1 [GSK1917008]: 22
- COc1ccc(NC(=O)c2ccoc2)cc1-c1ccc(C(=O)NCC2CC2)cc1 [GW810437]: 23
- Cc1cccc(Nc2nc(N[C@H]3CCCC[C@H]3N)ncc2C(N)=O)c1.Cl [GSK986310]: 62
- CNc1nccc(-c2ccc3c(N)n[nH]c3c2)n1 [GSK2206003]: 46
- Cc1ccc(O)cc1Nc1ccnc2ccc(C(C)(C)C)cc12 [GW856805]: 43
